Test system: GM-CSF induced STAT5 phosphorylation mediated by the JAK2/JAK2 homdimeric complex
Run Description: GM-CSF Induced pSTAT5 in Human PBMC
Condition Context: Homo sapiens, PBMC, 20 min, read-out: PBMC_GMCSF_pSTAT5 IC50, human PBMC; GM-CSF 5 ng/mL for 20 minutes; pSTAT5
# IC50 values compiled below
Measured Parameter: IC50

>>> value_observed("CNc1cc(Nc2cccn([C@H]3CCC[C@H](OC)C3)c2=O)nc2c(C(=O)NC3CC3)cnn12")
"> 50 µM"
>>> value_observed("CNc1cc(Nc2cccc(N3CCOCC3)n2)nc2c(C(=O)N[C@H]3C[C@H]3F)cnn12")
"> 12.5 µM"
>>> value_observed("CNc1cc(Nc2cccnc2OC2CC2)nc2c(C(=O)N[C@@H]3CC[C@@H]3O)cnn12")
"> 12.5 µM"
>>> value_observed("CNc1cc(Nc2cc(Cl)cn(-c3ccc(C)nn3)c2=O)nc2c(C(=O)N[C@H]3C[C@H]3F)cnn12")
"> 50 µM"
>>> value_observed("CNc1cc(Nc2cccn(-c3nc(C)c(C)s3)c2=O)nc2c(C(=O)N[C@H]3C[C@H]3F)cnn12")
"> 2.5 µM"
>>> value_observed("CNc1cc(Nc2cccn(-c3ncc(C)s3)c2=O)nc2c(C(=O)N[C@@H]3CC[C@H]3O)cnn12")
"> 12.5 µM"
>>> value_observed("CNc1cc(-c2cn(C3CC3)c3ncccc23)nc2c(C(=O)N[C@H]3CC[C@@H]3OC)cnn12 (stereo in doubt)")
"> 12.5 µM"
>>> value_observed("CNc1cc(Nc2cccn(-c3nc(C)co3)c2=O)nc2c(C(=O)N[C@@H]3CC[C@H]3O)cnn12 (stereo in doubt)")
"> 50 µM"
